Study target: Mitogen-activated protein kinase kinase kinase 8 (Homo sapiens)
Assay info: Inhibition of human COT (66 to 395 residues) expressed in Sf21 cells using 5-Fluo-Ahx-AGAGSGQLIDSNleANSFVGTR-NH2 as substrate after 60 mins by caliper microfluidic mobility shift assay
With a cut-off of 0.1 µM, any IC50 strictly below it is called condition met; any IC50 meeting it or above is called condition not met.

# Given smiles, Study target, Label
rows = [
    ("Clc1cc2c(cn1)ncc1ncn(-c3ccc4nc[nH]c4c3)c12", "Mitogen-activated protein kinase kinase kinase 8 (Homo sapiens)", "condition not met"),
    ("Cc1cccc(-c2cc3c(cn2)ncc2ncn(-c4ccc5nc[nH]c5c4)c23)c1", "Mitogen-activated protein kinase kinase kinase 8 (Homo sapiens)", "condition not met"),
    ("c1ccc(-c2cc3c(cn2)ncc2ncn(-c4ccc5ncccc5c4)c23)cc1", "Mitogen-activated protein kinase kinase kinase 8 (Homo sapiens)", "condition met"),
    ("N#CCc1ccc(-n2cnc3cnc4ccc(-c5ccsc5)cc4c32)cc1", "Mitogen-activated protein kinase kinase kinase 8 (Homo sapiens)", "condition not met"),
    ("N#CCc1ccc(-n2cnc3cnc4cnc(-c5ccsc5)cc4c32)cc1", "Mitogen-activated protein kinase kinase kinase 8 (Homo sapiens)", "condition met"),
    ("c1ccc(-c2cc3c(cn2)ncc2ncn(-c4ccc5nc[nH]c5c4)c23)cc1", "Mitogen-activated protein kinase kinase kinase 8 (Homo sapiens)", "condition met"),
]

---

Study target: Mitogen-activated protein kinase kinase kinase 8 (Homo sapiens, UniProt P41279)
Sequence (P41279 whole entry, the tested form may be a part): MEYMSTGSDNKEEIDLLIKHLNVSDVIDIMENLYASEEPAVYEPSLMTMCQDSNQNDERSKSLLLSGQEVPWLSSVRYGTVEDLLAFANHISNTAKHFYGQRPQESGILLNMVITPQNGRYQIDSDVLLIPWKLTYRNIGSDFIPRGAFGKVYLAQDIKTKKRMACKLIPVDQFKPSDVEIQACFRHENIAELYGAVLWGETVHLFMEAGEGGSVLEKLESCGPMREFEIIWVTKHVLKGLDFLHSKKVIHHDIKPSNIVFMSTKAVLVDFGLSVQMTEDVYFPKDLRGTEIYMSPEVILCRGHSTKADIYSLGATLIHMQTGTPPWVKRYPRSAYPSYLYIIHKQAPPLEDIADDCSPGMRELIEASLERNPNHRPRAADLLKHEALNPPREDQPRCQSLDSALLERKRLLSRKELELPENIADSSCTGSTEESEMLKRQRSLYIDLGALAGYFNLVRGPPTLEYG
Assay info: Inhibition of COT in LPS-stimulated human PBMC assessed as reduction in ERK1/2 phosphorylation incubated for 60 mins followed by LPS stimulation for 12 mins by flow cytometric analysis

# Compound, Scale unit, IC50
measured = [
    ("CC(CN1CCOCC1)Nc1nc2ccc(-n3cnc4cnc5cnc(-c6ccccc6)cc5c43)cc2s1 (stereo not drawn)", "nM", 120),
    ("c1cnc2ccc(-n3cnc4cnc5cnc(-c6ccsc6)cc5c43)cc2c1", "nM", 540),
    ("CC(CN1CCOCC1)Nc1nc2ccc(-n3cnc4cnc5cnc(-c6ccncc6)cc5c43)cc2s1 (stereo not drawn)", "nM", 80),
    ("C[C@@H](CN1CCOCC1)Nc1ccc2cc(-n3cnc4cnc5cnc(-c6ccncc6)cc5c43)ccc2n1", "nM", 620),
    ("c1ccc(-c2cc3c(cn2)ncc2ncn(-c4ccc5nc(NCCN6CCOCC6)sc5c4)c23)cc1", "nM", 280),
    ("CC(CN1CCOCC1)Nc1ccc2cc(-n3cnc4cnc5cnc(-c6ccncc6)cc5c43)ccc2n1 (racemic)", "nM", 60),
    ("CC(CN1CCOCC1)Nc1nc2ccc(-n3cnc4cnc5cnc(-c6cccs6)cc5c43)cc2s1 (stereo not drawn)", "nM", 280),
    ("C[C@H](CN1CCOCC1)Nc1ccc2cc(-n3cnc4cnc5cnc(-c6ccncc6)cc5c43)ccc2n1", "nM", 30),
]

---

Assay info: Metabolic stability in bile-duct cannulated Sprague-Dawley rat assessed as parent compound remaining in feces at 3 mg/kg, iv measured over 8 hrs post dose
Format: ADME, organism-based
Protocol conditions: read-out: Stability

# Molecule, dose excreted at 8 h, %
measured = [
    ("CC(CN1CCOCC1)Nc1nc2ccc(-n3cnc4cnc5cnc(-c6ccncc6)cc5c43)cc2s1 (stereo unspecified)", 37),
]

---

Assay info: Clearance in wild type Sprague-Dawley rat plasma at 1 mg/kg, iv
Assay type: ADME, organism-based
Value type: clearance

# Compound, Obs value
data = [
    ("C[C@H](CN1CCOCC1)Nc1ccc2cc(-n3cnc4cnc5cnc(-c6ccncc6)cc5c43)ccc2n1", "221 mL/min/kg"),
    ("CC(CN1CCOCC1)Nc1nc2ccc(-n3cnc4cnc5cnc(-c6cccs6)cc5c43)cc2s1 (stereo not drawn)", "40 mL/min/kg"),
    ("CC(CN1CCOCC1)Nc1nc2ccc(-n3cnc4cnc5cnc(-c6ccncc6)cc5c43)cc2s1 (stereo not drawn)", "297 mL/min/kg"),
]

---

Assay info: Half life in beagle dog liver microsomes at 5 uM preincubated for 3 mins followed by NADPH addition measured after 1 hr by HPLC/MS analysis
Assay type: ADME, Canis lupus familiaris

# Molecule, half-life at 5 µM (min)
measured = [
    ("CC(CN1CCOCC1)Nc1ccc2cc(-n3cnc4cnc5cnc(-c6ccncc6)cc5c43)ccc2n1 (racemic)", 10),
]

---

Assay info: Equilibrium solubility of the compound at pH 4 after 16 hrs by mass spectrometric analysis
Type: physicochemical
Protocol conditions: buffer
Items are presented alongside their recorded solubility thermodynamic at 16 h.

# Molecule, solubility thermodynamic at 16 h
data = [
    ("CC(CN1CCOCC1)Nc1nc2ccc(-n3cnc4cnc5cnc(-c6cccs6)cc5c43)cc2s1 (centres undefined)", "261 µM"),
    ("CC(CN1CCOCC1)Nc1nc2ccc(-n3cnc4cnc5cnc(-c6ccccc6)cc5c43)cc2s1 (centres undefined)", "> 1000 µM"),
    ("c1ccc(-c2cc3c(cn2)ncc2ncn(-c4ccc5ncccc5c4)c23)cc1", "< 4 µM"),
    ("CC(CN1CCOCC1)Nc1ccc2cc(-n3cnc4cnc5cnc(-c6ccncc6)cc5c43)ccc2n1 (racemic)", "> 1000 µM"),
    ("c1cnc2ccc(-n3cnc4cnc5cnc(-c6ccsc6)cc5c43)cc2c1", "6 µM"),
    ("Cc1nc2ccc(-n3cnc4cnc5cnc(-c6ccccc6)cc5c43)cc2s1", "< 4 µM"),
    ("c1ccc(-c2cc3c(cn2)ncc2ncn(-c4ccc5nc(NCCN6CCOCC6)sc5c4)c23)cc1", "> 1000 µM"),
    ("C[C@H](CN1CCOCC1)Nc1ccc2cc(-n3cnc4cnc5cnc(-c6ccncc6)cc5c43)ccc2n1", "> 1000 µM"),
    ("CC(CN1CCOCC1)Nc1nc2ccc(-n3cnc4cnc5cnc(-c6ccncc6)cc5c43)cc2s1 (centres undefined)", "> 1000 µM"),
]

---

Each record here notes measured dose excreted at 8 h.
Assay info: Metabolic stability in bile-duct cannulated Sprague-Dawley rat assessed as parent compound remaining in bile at 3 mg/kg, iv measured over 8 hrs post dose
Format: ADME, organism-based
Protocol conditions: read-out: Stability

# Molecule, dose excreted at 8 h [%]
measured = [
    ("CC(CN1CCOCC1)Nc1nc2ccc(-n3cnc4cnc5cnc(-c6ccncc6)cc5c43)cc2s1 (configuration not stated)", 0),
    ("CC(CN1CCOCC1)Nc1nc2ccc(-n3cnc4cnc5cnc(-c6cccs6)cc5c43)cc2s1 (configuration not stated)", 4),
]

---

Assay info: Terminal elimination half life in beagle dog at 0.1 mg/kg, iv or 0.3 mg/kg, po fasted 12 hrs prior to compound administration via cassette dosing and fed 2 hrs post dose
Assay type: ADME, organism-based, Canis lupus familiaris
Protocol conditions: in vivo, read-out: beta t1/2 (converted)

# Compound, half-life
rows = [
    ("CC(CN1CCOCC1)Nc1ccc2cc(-n3cnc4cnc5cnc(-c6ccncc6)cc5c43)ccc2n1 (racemic)", "3.2 h"),
]

---

Assay info: Mean residence time in beagle dog at 0.1 mg/kg, iv or 0.3 mg/kg, po fasted 12 hrs prior to compound administration via cassette dosing and fed 2 hrs post dose
Type: ADME, organism-based, Canis lupus familiaris
Protocol conditions: in vivo

# Molecule, MRT (h)
data = [
    ("CC(CN1CCOCC1)Nc1ccc2cc(-n3cnc4cnc5cnc(-c6ccncc6)cc5c43)ccc2n1 (racemic)", 2.4),
]

---

Listed below: logP values for each entry.
Assay info: Octanol-water partition coefficient, log P of the compound by shake-flask method
Type: physicochemical
Value type: logP

# Compound, Value type, Obs value
rows = [
    ("c1cnc2ccc(-n3cnc4cnc5cnc(-c6ccsc6)cc5c43)cc2c1", "logP", 4.2),
    ("CC(CN1CCOCC1)Nc1nc2ccc(-n3cnc4cnc5cnc(-c6cccs6)cc5c43)cc2s1 (stereo unspecified)", "logP", 5.1),
    ("N#CCc1ccc(-n2cnc3cnc4cnc(-c5ccsc5)cc4c32)cc1", "logP", 3.9),
    ("c1nc2ccc(-n3cnc4cnc5cnc(-c6ccsc6)cc5c43)cc2[nH]1", "logP", 4),
    ("c1ccc(-c2cc3c(cn2)ncc2ncn(-c4ccc5nc(NCCN6CCOCC6)sc5c4)c23)cc1", "logP", 4.6),
    ("N#CCc1ccc(-n2cnc3cnc4ccc(-c5ccsc5)cc4c32)cc1", "logP", 4.9),
    ("CC(CN1CCOCC1)Nc1nc2ccc(-n3cnc4cnc5cnc(-c6ccncc6)cc5c43)cc2s1 (stereo unspecified)", "logP", 3.3),
    ("C[C@H](CN1CCOCC1)Nc1ccc2cc(-n3cnc4cnc5cnc(-c6ccncc6)cc5c43)ccc2n1", "logP", 3.2),
    ("CC(CN1CCOCC1)Nc1nc2ccc(-n3cnc4cnc5cnc(-c6ccccc6)cc5c43)cc2s1 (stereo unspecified)", "logP", 4.4),
    ("CC(CN1CCOCC1)Nc1ccc2cc(-n3cnc4cnc5cnc(-c6ccncc6)cc5c43)ccc2n1 (racemic)", "logP", 3.3),
    ("N#CCc1ccc(-n2cnc3cnc4cc(Cl)c(-c5ccsc5)cc4c32)cc1", "logP", 5.4),
]

The measured values listed here are drawn from ChEMBL document CHEMBL3853320.
